Attribute: Percent Effect
target under test: Aspartate--tRNA(Asp/Asn) ligase (Mycobacterium tuberculosis (strain ATCC 25618 / H37Rv)) (UniProt P9WFW3)
Sequence (P9WFW3 whole entry): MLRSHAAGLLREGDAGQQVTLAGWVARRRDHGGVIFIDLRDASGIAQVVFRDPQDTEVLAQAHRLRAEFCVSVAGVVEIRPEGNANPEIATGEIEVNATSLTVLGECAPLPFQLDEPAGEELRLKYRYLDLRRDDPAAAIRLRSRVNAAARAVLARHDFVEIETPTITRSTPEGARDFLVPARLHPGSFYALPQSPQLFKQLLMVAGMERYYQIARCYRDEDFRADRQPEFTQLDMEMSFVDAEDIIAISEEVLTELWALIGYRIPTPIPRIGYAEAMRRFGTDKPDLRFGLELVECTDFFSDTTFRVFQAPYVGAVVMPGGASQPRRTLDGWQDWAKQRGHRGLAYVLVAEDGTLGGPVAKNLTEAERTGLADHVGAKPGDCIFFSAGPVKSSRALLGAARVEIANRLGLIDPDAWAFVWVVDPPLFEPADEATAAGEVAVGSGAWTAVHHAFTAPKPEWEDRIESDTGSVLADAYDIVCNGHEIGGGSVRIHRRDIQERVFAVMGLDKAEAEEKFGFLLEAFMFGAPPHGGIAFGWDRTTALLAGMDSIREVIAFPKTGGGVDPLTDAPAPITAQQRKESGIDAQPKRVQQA
experiment summary: Assay for Asp RNA synthetase-1 from Mycobacterium tuberculosis
Assay type: functional
Design: scale not given: in the data most compounds retested in dose-response had high values
test conditions: 30 µM
Write the value in % as a bare number.

INSERT INTO measurements (compound, recorded_endpoint, assay_result) VALUES
  ('NC(=O)c1cc(C2CCCN(CCc3ccccn3)C2)n[nH]1 (configuration not stated)', 'Percent Effect', -0.833),
  ('CC(=O)N1CCN(C)CC(COCc2ccccc2)C1 (configuration not stated)', 'Percent Effect', -1.62),
  ('Cc1ccc(CNC(=O)Nc2nnc(C)s2)cn1', 'Percent Effect', 4.24),
  ('CC(C)C(NC(=O)NCCNc1ccccn1)c1cccs1 (configuration not stated)', 'Percent Effect', 7.74),
  ('COCCCN1CCc2cncnc2C1', 'Percent Effect', 10.5);

Reported Percent Effect, compound Clc1snnc1CN1CCOC(CNc2cccnn2)C1 (configuration not stated) : ____
-1.85

Reported Percent Effect, compound CSCC[C@H](N)C(=O)NCc1cc2n(n1)CCCN(C1CCCCC1)C2 : ____
-6.77
